Reference source: ChEMBL document CHEMBL1201862

tested on: XF498; assay: NCI tumour cell line growth inhibition, 48 h
Active and inactive are the calls of the source. Rule as the data show it: active = GI50 up to about 1.1 µM and inactive = higher.

MOLECULE	STUDY TARGET	GI50
C/C(CC(=O)Nc1ccc([N+](=O)[O-])cc1)=N\Nc1ccc([N+](=O)[O-])cc1[N+](=O)[O-]	XF498	86.7 µM (inactive)
CN(C)CCCSc1c2ccccc2nc2cc(NCC(=O)Nc3ccccc3-c3ccccc3NC(=O)CNc3ccc4c(SCCCN(C)C)c5ccccc5nc4c3)ccc12	XF498	71.8 µM (inactive)
CC(C)C1CO[C@]2(C)CCC(=O)N12 (some centres not stated)	XF498	> 100 µM (inactive)
CC1=C(C(=O)CC(=O)C(=O)Nc2ccccc2)Sc2ccccc2N1	XF498	> 100 µM (inactive)
CC(C)(C)c1cc(Oc2ccc(C#N)c(C#N)c2)cc(C(C)(C)C)c1	XF498	> 100 µM (inactive)
COCC(=O)OC1CCn2c1nc1c2C(=O)C(C)=C(NC(C)=O)C1=O (configuration not stated)	XF498	4.41 µM (inactive)
c1ccc2c(c1)CCCc1cc3ccccc3nc1-2	XF498	53.3 µM (inactive)
Cc1nc2ccccc2c(=O)n1/N=C(\N=N\c1ccc(Cl)cc1)c1ccc(N(C)C)cc1	XF498	14.6 µM (inactive)
Cc1ccc(CCNC(=S)SCC(NC(=O)CCC(N)C(=O)O)C(=O)NCC(=O)O)cc1 (configuration not stated)	XF498	1.49 µM (inactive)
OCC(O)C(O)C(O)c1nn(-c2ccccc2)c2nc3cc(Cl)c(Cl)cc3nc12 (configuration not stated)	XF498	23.4 µM (inactive)
CCN(CC)CCN1CCc2c([nH]c3ccccc23)C1c1cccnc1 (configuration not stated)	XF498	> 100 µM (inactive)
O=C(Cc1ccccc1)NN1C(=O)C(Cl)C1c1ccccc1 (configuration not stated)	XF498	24.6 µM (inactive)
C[C@]12CCC(=O)C=C1CC[C@@H]1[C@@H]2CC[C@]2(C)C(=O)NC(=O)C[C@@H]12	XF498	> 100 µM (inactive)
O=CC1CCC=CC1NC(=O)OCc1ccccc1 (configuration not stated)	XF498	44.2 µM (inactive)
CC1C(O)=C(O)c2ccccc2N1O (configuration not stated)	XF498	> 100 µM (inactive)
Brc1cccc(/C=N/C23CC4CC(CC(C4)C2)C3)c1	XF498	> 100 µM (inactive)
Cc1nc2ccccc2c(=O)n1/N=C(\N=N\c1cccc(Cl)c1)c1ccccc1Cl	XF498	2.29 µM (inactive)
C1CN2CCN3CCN4CCN1[PH]243	XF498	> 100 µM (inactive)
CP1(=O)CCCCC1	XF498	> 100 µM (inactive)
O=c1[nH]c(=O)n(C2OC(CO)C(O)C2O)cc1OCc1ccccc1 (configuration not stated)	XF498	> 100 µM (inactive)
O=C(NCCO)c1ccc([N+](=O)[O-])cc1	XF498	> 100 µM (inactive)
COc1cccc(-c2cc(C(=O)Nc3ccc(Cl)cc3)nc(N)n2)c1	XF498	93.8 µM (inactive)

* * *

tested on: PC-3; assay: NCI tumour cell line growth inhibition, 48 h
The source made the active and inactive calls. Cut-off read from the data, not from the text of the source: active = GI50 up to about 1.1 µM and inactive = higher.
MEASURE NAME: GI50

SMILES INPUT	STUDY TARGET	MEASURE NAME	RESULT
C/C(=N\NC(=S)N1CCC(N2CCCCC2)CC1)c1ccccn1	PC-3	GI50	3.56 µM (inactive)
O=C(O)CCc1ccc(-c2ccccc2)[nH]1	PC-3	GI50	> 100 µM (inactive)
CN(CCCCN(C)CCc1ccc(Cl)c(Cl)c1)CCCCN1CCCC1	PC-3	GI50	1.57 µM (inactive)
Nc1onc2c1Cc1c(noc1N)-c1ccccc1-2	PC-3	GI50	48.3 µM (inactive)
Cc1c(S(=O)(=O)N/C(=N\O)Nc2ccc(Cl)c(Cl)c2)sc2ccc(Cl)cc12	PC-3	GI50	18.6 µM (inactive)
CCSc1n/c(=C\c2ccco2)c2nnnn12	PC-3	GI50	> 100 µM (inactive)
N#CCCN(CCC#N)c1ccc(C(=N/c2ccc(F)cc2)/N=N/c2ccccc2)cc1	PC-3	GI50	> 100 µM (inactive)
CCC/C(C)=N/NC(=S)SC.CCC/C(C)=N/NC(=S)SC.[Zn+2]	PC-3	GI50	12.4 µM (inactive)
CCOC(=O)Nc1ccc(S(=O)(=O)Nc2ccc(Br)cc2)cc1	PC-3	GI50	41 µM (inactive)
O=C1NC(N2CCCCC2)=N/C1=C\c1ccc(Cl)cc1	PC-3	GI50	37.1 µM (inactive)
O=C(O)COc1cc(-c2ccccc2)nc2cc(F)ccc12	PC-3	GI50	> 100 µM (inactive)
